Tested on: Escherichia coli TOP10;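 note: peptides expressed intracellularly from a pBAD plasmid library in pooled LB shake-flask culture, induced with 0.3% L-arabinose, DNA abundance read by NGS, three biological replicates, DESeq2 with apeglm shrinkage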
Assay: shrunken log2 fold change of peptide-encoding DNA abundance (4.5 h post-induction vs induction); higher = less antimicrobial activity (less host growth inhibition)
Conditions: time post-induction: 4.5 h; library: site-saturation at positions 5, 18, 19, 20
Class (by shrunken log2 fold change) -- category 1 = under -0.1, category 2 = from -0.1 up to 0.08, category 3 = 0.08 and over

Here are 5 sequences together with their reported answers.
| query_sequence | label_class |
| --- | --- |
| RRIRCRPPRLPRPRPRPACYPRP | category 2 |
| RRIRCRPPRLPRPRPRPYIVPRP | category 1 |
| RRIRYRPPRLPRPRPRPRGQPRP | category 2 |
| RRIRPRPPRLPRPRPRPHVTPRP | category 2 |
| RRIRERPPRLPRPRPRPMMMPRP | category 1 |

Query: Would you mind sorting "RRIRHRPPRLPRPRPRPAANPRP" into the appropriate category?
Reply: category 2

Query: Would you mind sorting "RRIRLRPPRLPRPRPRPMQGPRP" into the appropriate category?
Reply: category 2

All figures here come from the supplement of paper PMC9112550.
